Hello, the source for this data is paper PMC6670186, in case you need it.

- Protocol notes: Stability in phosphate-buffered saline
- Format: physicochemical
- Assay setup: PBS 37 °C; 20** + x h, 20 h = t1/2 in PBS of DAC, x = OR compound
Marks after values point to notes of the source that are not given here.

# Test smiles, Stability t1/2 in PBS
records = [
    ("CCC[Si](CC)(CC)OC[C@H]1O[C@@H](n2cnc(N)nc2=O)C[C@@H]1O", "20** + 19 h"),
    ("CCC[Si](C)(C)OC[C@H]1O[C@@H](n2cnc(N)nc2=O)C[C@@H]1O", "20** + 1 h"),
    ("CC[Si](CC)(CC)OC[C@H]1O[C@@H](n2cnc(N)nc2=O)C[C@@H]1O", "20** + 16 h"),
    ("C[Si](C)(OC[C@H]1O[C@@H](n2cnc(N)nc2=O)C[C@@H]1O)C1CCCCC1", "20** + 14 h"),
]
